molecular target: UniProt O43613; test: Human orexin 1 receptor radioligand binding ([3H]-SB674042 competition); settings: CHO cells stably expressing human orexin 1 receptor; [3H]-SB674042 4 nM final; read-out: OR-1 Ki
Sequence (O43613 whole entry): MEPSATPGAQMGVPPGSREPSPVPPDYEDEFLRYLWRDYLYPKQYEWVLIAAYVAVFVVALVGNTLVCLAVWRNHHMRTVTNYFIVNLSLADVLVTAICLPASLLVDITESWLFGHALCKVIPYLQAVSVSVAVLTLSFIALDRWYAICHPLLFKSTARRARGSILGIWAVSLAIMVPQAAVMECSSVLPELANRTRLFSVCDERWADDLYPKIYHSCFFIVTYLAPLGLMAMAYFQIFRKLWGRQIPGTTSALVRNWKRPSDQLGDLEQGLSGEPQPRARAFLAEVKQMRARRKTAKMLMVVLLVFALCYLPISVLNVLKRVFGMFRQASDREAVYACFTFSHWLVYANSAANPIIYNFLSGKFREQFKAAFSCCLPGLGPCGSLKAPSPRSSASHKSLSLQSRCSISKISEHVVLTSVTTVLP
pKi: −log10 of the molar value.
reported metric: pKi

Known results for compounds:
O=C(c1c(F)cccc1-n1nccn1)N1CC[C@H]2CN(c3nccc(C(F)(F)F)n3)[C@H]2C1 6.20
Cc1cc(C)nc(N2C[C@@H]3CCN(C(=O)c4cccc(F)c4-c4ncccn4)C[C@@H]32)c1 6.16

a. Cc1cccc(C(=O)N2CC[C@H]3CN(c4cc(C(F)(F)F)ccn4)[C@H]3C2)c1-n1nccn1
b. O=C(c1ccccc1Br)N1CC[C@H]2CN(c3cnc4ccccc4n3)[C@H]2C1
Would you mind telling me which has the lower recorded pKi between a and b ? Please reply using the label of the selected record.
a
(a: 6.10, b: 7.11)

Just for reference, patent US8680275B2 is where these values come from.
